assayedSystem: full-length beta-Catenin (Uniprot ID P35222) (Homo sapiens)
Construct: 10 nM full-length beta-Catenin (Uniprot ID P35222)
Sequence (P35222 whole entry): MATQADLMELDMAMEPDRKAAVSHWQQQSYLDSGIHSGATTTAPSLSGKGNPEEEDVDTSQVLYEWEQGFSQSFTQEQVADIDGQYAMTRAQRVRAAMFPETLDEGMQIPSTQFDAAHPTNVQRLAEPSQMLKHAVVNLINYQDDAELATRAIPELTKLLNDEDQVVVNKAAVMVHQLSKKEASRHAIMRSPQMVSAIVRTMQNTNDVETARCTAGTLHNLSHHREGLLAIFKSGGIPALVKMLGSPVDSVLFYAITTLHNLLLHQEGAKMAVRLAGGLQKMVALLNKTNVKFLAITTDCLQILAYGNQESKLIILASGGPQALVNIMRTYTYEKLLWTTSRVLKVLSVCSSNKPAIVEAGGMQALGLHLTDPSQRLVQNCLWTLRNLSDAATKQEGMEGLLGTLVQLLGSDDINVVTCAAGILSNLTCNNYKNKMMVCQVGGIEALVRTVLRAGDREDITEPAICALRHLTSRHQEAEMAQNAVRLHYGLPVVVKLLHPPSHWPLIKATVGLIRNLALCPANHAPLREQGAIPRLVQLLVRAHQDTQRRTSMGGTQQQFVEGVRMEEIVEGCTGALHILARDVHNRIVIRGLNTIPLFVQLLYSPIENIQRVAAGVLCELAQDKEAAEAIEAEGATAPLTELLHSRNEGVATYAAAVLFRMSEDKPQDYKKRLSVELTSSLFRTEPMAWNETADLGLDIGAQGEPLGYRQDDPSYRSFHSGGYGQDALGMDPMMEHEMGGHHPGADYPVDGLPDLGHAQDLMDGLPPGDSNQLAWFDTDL
testMethodNotes: Fluorescence polarization IC50 (beta-catenin / 5FAM-TCF4 10-53 competition)
Type: binding
testParameters: read-out: beta-Catenin FP IC50
The entries below are paired with their reported IC50.

| molecule | IC50 / nM |
| --- | --- |
| CC(=O)N1CCC[C@]12CC=CCCCC1(CCCC=CCCCOC(=O)N3CC[C@@](C(=O)N[C@@H](Cc4ccsc4)C(=O)N[C@@H](Cc4csc5ccccc45)C(=O)N[C@@H](Cc4c[nH]cn4)C(N)=O)(C3)NC(=O)[C@H](CC(N)=O)NC(=O)[C@H](Cc3ccccc3)NC(=O)[C@H](C)NC(=O)[C@H](C)NC(=O)[C@H](Cc3ccc(O)cc3)NC(=O)[C@H](CC(=O)O)NC1=O)NC(=O)[C@H](CC(C)(C)C)NC(=O)[C@H](CC(=O)O)NC2=O (stereo partly drawn) [I-843] | 154 |
| CC(=O)N1CCC[C@]12CC=CCCCC1(CCCC=CCCCOC(=O)N3CC[C@@](C(=O)N[C@@H](Cc4ccsc4)C(=O)N[C@@H](Cc4csc5ccccc45)C(=O)N[C@@H](CCC(N)=O)C(N)=O)(C3)NC(=O)[C@H](Cc3ccccc3)NC(=O)[C@H](Cc3ccccc3)NC(=O)[C@H](C)NC(=O)[C@H](C)NC(=O)[C@H](Cc3cccc(C(=O)O)c3)NC(=O)[C@H](CC(=O)O)NC1=O)NC(=O)[C@H](CC(C)(C)C)NC(=O)[C@H](CC(=O)O)NC2=O (stereo partly drawn) [I-852] | 7 |
| CC(=O)N1CCC[C@]12CC=CCCCC1(CCCC=CCOC(=O)N(C)CCC[C@@](C)(C(=O)N[C@@H](Cc3ccsc3)C(=O)N[C@@H](Cc3csc4ccccc34)C(=O)N[C@@H](CCC(N)=O)C(N)=O)NC(=O)[C@H](CC(N)=O)NC(=O)[C@H](Cc3ccccc3)NC(=O)[C@H](C)NC(=O)[C@H](C)NC(=O)[C@H](CC(=O)O)NC(=O)[C@H](CC(=O)O)NC1=O)NC(=O)[C@H](CC(C)(C)C)NC(=O)[C@H](CC(=O)O)NC2=O (stereo partly drawn) [I-765] | 228 |
| CC(=O)N1CCC[C@]12CC=CCCCC1(CCCC=CCCCOC(=O)N3CC[C@@](C(=O)N[C@@H](Cc4ccccc4Cl)C(=O)N[C@@H](Cc4csc5ccccc45)C(=O)N[C@H](C(N)=O)[C@@H](C)O)(C3)NC(=O)[C@H](CC(C)C)NC(=O)[C@H](Cc3ccccc3)NC(=O)[C@H](C)NC(=O)[C@H](C)NC(=O)[C@H](CCC(=O)O)NC(=O)[C@H](CC(=O)O)NC1=O)NC(=O)[C@H](CC(C)(C)C)NC(=O)[C@H](CC(=O)O)NC2=O (stereo partly drawn) [I-1071] | 1260 |
| CC(=O)N1CCC[C@]12CC=CCCCC1(CCCC=CCCCOC(=O)N3CC[C@@](C(=O)N[C@@H](Cc4ccccc4Cl)C(=O)N[C@@H](Cc4csc5ccccc45)C(=O)N[C@@H](CCC(N)=O)C(N)=O)(C3)NC(=O)[C@H](CO)NC(=O)[C@H](Cc3ccccc3)NC(=O)[C@H](C)NC(=O)[C@H](C)NC(=O)[C@H](CC(=O)O)NC(=O)[C@H](CC(=O)O)NC1=O)NC(=O)[C@H](CC1CCCCC1)NC(=O)[C@H](CC(=O)O)NC2=O (stereo partly drawn) [I-1044] | 5 |
| CC(=O)N1CCC[C@]12CC=CCCCC1(CCCC=CCCCCCC[C@@](C)(C(=O)N[C@@H](Cc3ccccc3Cl)C(=O)N[C@@H](Cc3csc4ccccc34)C(=O)N[C@@H](CCC(N)=O)C(N)=O)NC(=O)[C@H](CC(C)C)NC(=O)[C@H](Cc3ccccc3)NC(=O)[C@H](C)NC(=O)[C@H](C)NC(=O)[C@H](CC(=O)O)NC(=O)[C@H](CC(=O)O)NC1=O)NC(=O)[C@H](CC(C)(C)C)NC(=O)[C@H](CC(=O)O)NC2=O (stereo partly drawn) [I-1095] | 15 |
| CC(=O)N1CCC[C@]12CC=CCCCC1(CCCC=CCCCOC(=O)N3CC[C@@](C(=O)N[C@@H](Cc4ccsc4)C(=O)N[C@@H](Cc4csc5ccccc45)C(=O)N[C@@H](Cc4c[nH]cn4)C(N)=O)(C3)NC(=O)[C@H](CC(N)=O)NC(=O)[C@H](Cc3ccccc3)NC(=O)[C@H](C)NC(=O)[C@H](C)NC(=O)[C@H](CN(CC(=O)O)CC(F)(F)F)NC(=O)[C@H](CC(=O)O)NC1=O)NC(=O)[C@H](CC(C)(C)C)NC(=O)[C@H](CC(=O)O)NC2=O (stereo partly drawn) [I-769] | 5 |
| CC(=O)N1CCC[C@]12CC=CCCCC1(CCCC=CCCCOC(=O)N3CC[C@@](C(=O)N[C@@H](Cc4ccc(O)cc4)C(=O)N[C@@H](Cc4csc5ccccc45)C(=O)N[C@@H](CCC(N)=O)C(N)=O)(C3)NC(=O)[C@H](Cc3ccccc3)NC(=O)[C@H](Cc3ccccc3)NC(=O)[C@H](C)NC(=O)[C@H](C)NC(=O)[C@H](CN(CC(=O)O)CC(F)(F)F)NC(=O)[C@H](CC(=O)O)NC1=O)NC(=O)[C@H](CC(C)(C)C)NC(=O)[C@H](CC(=O)O)NC2=O (stereo partly drawn) [I-989] | 87 |
| CC(=O)N1CCC[C@]12CC=CCCCC1(CCCC=CCCCOC(=O)N3CC[C@@](C(=O)N[C@@H](Cc4ccsc4)C(=O)N[C@@H](Cc4csc5ccccc45)C(=O)N[C@@H](CO)C(N)=O)(C3)NC(=O)[C@H](Cc3ccccc3)NC(=O)[C@H](Cc3ccccc3)NC(=O)[C@H](C)NC(=O)[C@H](C)NC(=O)[C@H](Cc3cccc(C(=O)O)c3)NC(=O)[C@H](CC(=O)O)NC1=O)NC(=O)[C@H](CC(C)(C)C)NC(=O)[C@H](CC(=O)O)NC2=O (stereo partly drawn) [I-982] | 190 |

---

The entries below are paired with their reported IC50.
assayedSystem: beta-catenin/TCF4 engagement (Homo sapiens)
Construct: expressed in transfected cells; host or cells: HEK293
Sequence (P35222 whole entry): as above
testMethodNotes: Nano-BRET target engagement assay (B-cat-Halo & TCF4-Luc in HEK293 cells)
Assay type: cell-based
testParameters: read-out: NanoBRET Abs IC50
reportedEndpoint: IC50 (µM)

| molecule | cmp | endpointValue |
| --- | --- | --- |
| CC(=O)N1CCC[C@]12CC=CCCCC1(CCCC=CCCCOC(=O)N3CC[C@@](C(=O)N[C@@H](Cc4csc5ccccc45)C(=O)N[C@@H](Cc4csc5ccccc45)C(=O)N[C@@H](Cc4c[nH]cn4)C(N)=O)(C3)NC(=O)[C@H](CC(N)=O)NC(=O)[C@H](Cc3ccccc3)NC(=O)[C@H](C)NC(=O)[C@H](C)NC(=O)[C@H](CC(=O)O)NC(=O)[C@H](CC(=O)O)NC1=O)NC(=O)[C@H](CC(C)(C)C)NC(=O)[C@H](CC(=O)O)NC2=O (stereo partly drawn) | > | 20 |
| CC(=O)N1CCC[C@]12CC=CCCCC1(CCCC=CCCCOC(=O)N3CC[C@@](C(=O)N[C@@H](Cc4ccccc4)C(=O)N[C@@H](Cc4csc5ccccc45)C(=O)N[C@@H](CCC(N)=O)C(N)=O)(C3)NC(=O)[C@H](CC(C)C)NC(=O)[C@H](Cc3cccc(C(F)(F)F)c3)NC(=O)[C@H](C)NC(=O)[C@H](C)NC(=O)[C@H](CC(=O)O)NC(=O)[C@H](CC(=O)O)NC1=O)NC(=O)[C@H](CC(C)(C)C)NC(=O)[C@H](CC(=O)O)NC2=O (stereo partly drawn) | = | 8.1 |
| CC(=O)N1CCC[C@]12CC=CCCCC1(CCCC=CCCCOC(=O)N3CC[C@@](C(=O)N[C@@H](Cc4ccsc4)C(=O)N[C@@H](Cc4csc5ccccc45)C(=O)N[C@@H](CCC(N)=O)C(N)=O)(C3)NC(=O)[C@H](CC(C)C)NC(=O)[C@H](Cc3ccccc3)NC(=O)[C@H](C)NC(=O)[C@H](C)NC(=O)[C@H](Cn3cc(CCC(=O)O)nn3)NC(=O)[C@H](CC(=O)O)NC1=O)NC(=O)[C@H](CC(C)(C)C)NC(=O)[C@H](CC(=O)O)NC2=O (stereo partly drawn) | = | 7.7 |

---

testMethodNotes: CHI Log D procedure
Type: physicochemical
testParameters: pH 7.4, CHI Log D
Parameter threshold = 2. Response is satisfied when chromatographic logD meets or exceeds it, else not satisfied.

| molecule | classAssignment |
| --- | --- |
| CC(=O)N1CCC[C@]12CC=CCCCC1(CCCC=CCCCCCC[C@@](C)(C(=O)N[C@@H](Cc3ccccc3Cl)C(=O)N[C@@H](Cc3csc4ccccc34)C(=O)N[C@@H](CCC(N)=O)C(N)=O)NC(=O)[C@H](CC(C)C)NC(=O)[C@H](Cc3ccccc3)NC(=O)[C@H](C)NC(=O)[C@H](C)NC(=O)[C@H](CCC(=O)O)NC(=O)[C@H](CC(=O)O)NC1=O)NC(=O)[C@H](CC(C)(C)C)NC(=O)[C@H](CC(=O)O)NC2=O (stereo partly drawn) [I-1096] | satisfied |
| CC[C@H](C)[C@H](NC(=O)[C@H](CC(=O)O)NC(=O)[C@H](C)NC(C)=O)C(=O)N[C@]1(C)CCN(C)C(=O)OCC=CCCCCC[C@@](C)(C(=O)N[C@@H](Cc2ccccc2)C(=O)N[C@@H](Cc2c[nH]c3ccccc23)C(=O)N[C@@H](Cc2c[nH]cn2)C(N)=O)NC(=O)[C@H](C)NC(=O)[C@H](Cc2ccccc2)NC(=O)[C@H](C)NC(=O)[C@H](C)NC(=O)[C@H](CCC(=O)O)NC(=O)[C@H](CC(=O)O)NC1=O [I-152] | not satisfied |
| CC(=O)N1CCC[C@]12CC=CCCCC1(CCCC=CCCCCCC[C@@](C)(C(=O)N[C@@H](Cc3ccccc3)C(=O)N[C@@H](Cc3csc4ccccc34)C(=O)N[C@@H](CCC(N)=O)C(N)=O)NC(=O)[C@H](CO)NC(=O)[C@H](Cc3ccccc3)NC(=O)[C@H](C)NC(=O)[C@H](C)NC(=O)[C@H](Cc3ccc4ccccc4c3)NC(=O)[C@H](CC(=O)O)NC1=O)NC(=O)[C@H](C)NC(=O)[C@H](CC(=O)O)NC2=O (stereo partly drawn) [I-298] | satisfied |
| CC(=O)N1CCC[C@]12CC=CCCCC1(CCCC=CCCCOC(=O)N3CC[C@@](C(=O)N[C@@H](Cc4ccsc4)C(=O)N[C@@H](Cc4csc5ccccc45)C(=O)N[C@@H](Cc4c[nH]cn4)C(=O)N[C@@H](C)C(N)=O)(C3)NC(=O)[C@H](CC(N)=O)NC(=O)[C@H](Cc3ccccc3)NC(=O)[C@H](C)NC(=O)[C@H](C)NC(=O)[C@H](CC(=O)O)NC(=O)[C@H](CC(=O)O)NC1=O)NC(=O)[C@H](CC(C)(C)C)NC(=O)[C@H](CC(=O)O)NC2=O (stereo partly drawn) [I-820] | satisfied |
| CC(=O)N1CCC[C@]12CC=CCCCC1(CCCC=CCCCOC(=O)N3CC[C@@](C(=O)N[C@@H](Cc4ccsc4)C(=O)N[C@@H](Cc4csc5ccccc45)C(=O)N[C@@H](CCC(N)=O)C(=O)N[C@@H](CCCCN)C(N)=O)(C3)NC(=O)[C@H](CC(N)=O)NC(=O)[C@H](Cc3ccccc3)NC(=O)[C@H](C)NC(=O)[C@H](C)NC(=O)[C@H](CC(=O)O)NC(=O)[C@H](CC(=O)O)NC1=O)NC(=O)[C@H](CC(C)(C)C)NC(=O)[C@H](CC(=O)O)NC2=O (stereo partly drawn) [I-939] | not satisfied |
| CC(=O)N1CCC[C@]12CC=CCCCC1(CCCC=CCCCOC(=O)N3CC[C@@](C(=O)N[C@@H](Cc4ccsc4)C(=O)N[C@@H](Cc4csc5ccccc45)C(=O)N[C@@H](CCC(N)=O)C(N)=O)(C3)NC(=O)[C@H](CC(N)=O)NC(=O)[C@H](Cc3ccccc3)NC(=O)[C@H](C)NC(=O)[C@H](C)NC(=O)[C@H](CCC(N)=O)NC(=O)[C@H](CC(=O)O)NC1=O)NC(=O)[C@H](CC(C)(C)C)NC(=O)[C@H](CC(=O)O)NC2=O (stereo partly drawn) [I-838] | satisfied |
| CC(=O)N1CCC[C@]12CC=CCCCC1(CCCC=CCCCOC(=O)N3CC[C@@](C(=O)N[C@@H](Cc4ccsc4)C(=O)N[C@@H](Cc4csc5ccccc45)C(=O)N[C@@H](CCC(N)=O)C(N)=O)(C3)NC(=O)[C@H](Cc3ccccc3)NC(=O)[C@H](Cc3ccccc3)NC(=O)[C@H](C)NC(=O)[C@H](C)NC(=O)[C@H](Cc3cccc(C(=O)O)c3)NC(=O)[C@H](CC(=O)O)NC1=O)NC(=O)[C@H](CC(C)(C)C)NC(=O)[C@H](CC(=O)O)NC2=O (stereo partly drawn) [I-852] | satisfied |
| CC(=O)N[C@@H](Cc1ccccc1)C(=O)N[C@@H](CC(=O)O)C(=O)N[C@]1(C)CCCCCCC=CCOC(=O)N2CC[C@@](C(=O)N[C@@H](C)C(=O)N[C@@H](Cc3ccccc3)C(=O)N[C@@H](Cc3c[nH]c4ccccc34)C(=O)N[C@@H](CCC(N)=O)C(N)=O)(C2)NC(=O)[C@H](Cc2ccccc2)NC(=O)[C@H](C)NC(=O)[C@H](C)NC(=O)[C@H](CC(=O)O)NC(=O)[C@H](CC(=O)O)NC(=O)[C@H](C)NC1=O [I-51] | not satisfied |
| CC(=O)N1CCC[C@]12CC=CCCCC1(CCCC=CCCCOC(=O)N3CC[C@@](C(=O)N[C@@H](Cc4ccccc4)C(=O)N[C@@H](Cc4csc5ccccc45)C(=O)N[C@@H](CO)C(N)=O)(C3)NC(=O)[C@H](CO)NC(=O)[C@H](Cc3ccccc3)NC(=O)[C@H](C)NC(=O)[C@H](C)NC(=O)[C@H](CC(=O)O)NC(=O)[C@H](CC(=O)O)NC1=O)NC(=O)[C@H](CC1CCCCC1)NC(=O)[C@H](CC(=O)O)NC2=O (stereo partly drawn) [I-1100] | satisfied |
